Origin of values: patent US20070117743A1

# Test system: PANC-1
# PROCEDURE_TEXT: SRB colorimetric assay of cell growth and viability, PANC-1
# Type: cell-based, human
# EXPERIMENTAL_SETUP: PANC-1; 48 hours exposure; read-out: LC50 PANC-1
Where a SMILES comes first, the peptide text is derived from it. Bridges are numbered along the chain shown (N, C = ends). [ ]: non-standard residue; d: D form. The star is where a group is joined. 2Nal = N[C@@H](Cc1ccc2ccccc2c1)C(=O)O; d(aIle) = CC[C@H](C)[C@@H](N)C(=O)O; d(aThr) = C[C@@H](O)[C@@H](N)C(=O)O; hCha = N[C@@H](CCC1CCCCC1)C(=O)O; Hexanoyl(5-Me) = CC(C)CCCC(=O)*; Orn = NCCC[C@H](N)C(=O)O; Dhb = C/C=C(\N)C(=O)O
Label key: criterion met means CC50 under 2000 nM; criterion not met means CC50 of 2000 nM or more.

molecule="[2H]C([2H])([2H])C([2H])(C([2H])([2H])[2H])[C@]([2H])(NC(=O)[C@@H](NC(=O)[C@H](NC(=O)CCCC(C)C)C(C)C)[C@@H](C)O)C(=O)N[C@@H](C(=O)N1CCC[C@@H]1C(=O)N[C@@H](CCCN)C(=O)N[C@@H](C(=O)N[C@H]1C(=O)N[C@H]([C@@H](C)CC)C(=O)N[C@H](C(C)C)C(=O)N[C@@H](Cc2ccccc2)C(=O)N/C(=C\\C)C(=O)N[C@@H](C(C)C)C(=O)O[C@@H]1C)[C@@H](C)CC)C(C)C [Compound 100, [L-Val-d8^11]-KF]" label_class="criterion met"

Exercise: Strictly below 2000 nM: is that where CC50 of C/C=C1\NC(=O)[C@H](Cc2ccc(Cl)cc2)NC(=O)[C@@H](C(C)C)NC(=O)[C@@H]([C@@H](C)CC)NC(=O)[C@H](NC(=O)[C@H](NC(=O)[C@H](CCCN)NC(=O)[C@H]2CCCN2C(=O)[C@H](NC(=O)[C@@H](NC(=O)[C@@H](NC(=O)[C@H](NC(=O)CCCC(C)C)C(C)C)[C@@H](C)O)C(C)C)C(C)C)[C@@H](C)CC)[C@@H](C)OC(=O)[C@H](C(C)C)NC1=O [Compound 83, [Phe(4-Cl)^3]-KF] sits?
Key: criterion met

Exercise: Strictly below 2000 nM: is that where CC50 of C/C=C1\NC(=O)[C@H](Cc2ccc3ccccc3c2)NC(=O)[C@@H](C(C)C)NC(=O)[C@@H]([C@@H](C)CC)NC(=O)[C@H](NC(=O)[C@H](NC(=O)[C@H](CCCN)NC(=O)[C@H]2CCCN2C(=O)[C@H](NC(=O)[C@@H](NC(=O)[C@@H](NC(=O)[C@H](NC(=O)CCCC(C)C)C(C)C)[C@@H](C)O)C(C)C)C(C)C)[C@@H](C)CC)[C@@H](C)OC(=O)[C@H](C(C)C)NC1=O [Compound 85, [Nal^3]-KF] ({Hexanoyl(5-Me)}-[dV]TV[dV][dP][Orn][d(aIle)][d(aThr)][d(aIle)][dV][2Nal][Dhb]V; ester 8-C) sits?
Key: criterion met

Exercise: Strictly below 2000 nM: is that where CC50 of C/C=C1\NC(=O)[C@H](Cc2cccc(Cl)c2)NC(=O)[C@@H](C(C)C)NC(=O)[C@@H]([C@@H](C)CC)NC(=O)[C@H](NC(=O)[C@H](NC(=O)[C@H](CCCN)NC(=O)[C@H]2CCCN2C(=O)[C@H](NC(=O)[C@@H](NC(=O)[C@@H](NC(=O)[C@H](NC(=O)CCCC(C)C)C(C)C)[C@@H](C)O)C(C)C)C(C)C)[C@@H](C)CC)[C@@H](C)OC(=O)[C@H](C(C)C)NC1=O [Compound 82, [Phe(3-Cl)^3]-KF] sits?
Key: criterion met

Exercise: Strictly below 2000 nM: is that where CC50 of C/C=C1\NC(=O)[C@H](Cc2ccccc2Cl)NC(=O)[C@@H](C(C)C)NC(=O)[C@@H]([C@@H](C)CC)NC(=O)[C@H](NC(=O)[C@H](NC(=O)[C@H](CCCN)NC(=O)[C@H]2CCCN2C(=O)[C@H](NC(=O)[C@@H](NC(=O)[C@@H](NC(=O)[C@H](NC(=O)CCCC(C)C)C(C)C)[C@@H](C)O)C(C)C)C(C)C)[C@@H](C)CC)[C@@H](C)OC(=O)[C@H](C(C)C)NC1=O [Compound 81, [Phe(2-Cl)^3]-KF] sits?
Key: criterion met

Exercise: Strictly below 2000 nM: is that where CC50 of C/C=C1\NC(=O)[C@H](Cc2ccc(F)c(F)c2)NC(=O)[C@@H](C(C)C)NC(=O)[C@@H]([C@@H](C)CC)NC(=O)[C@H](NC(=O)[C@H](NC(=O)[C@H](CCCN)NC(=O)[C@H]2CCCN2C(=O)[C@H](NC(=O)[C@@H](NC(=O)[C@@H](NC(=O)[C@H](NC(=O)CCCC(C)C)C(C)C)[C@@H](C)O)C(C)C)C(C)C)[C@@H](C)CC)[C@@H](C)OC(=O)[C@H](C(C)C)NC1=O [Compound 84, [Phe(3,4-F2)^3]-KF] sits?
Key: criterion met

Exercise: Strictly below 2000 nM: is that where CC50 of C/C=C1\NC(=O)[C@H](Cc2ccccc2)NC(=O)[C@@H](C(C)C)NC(=O)[C@@H]([C@@H](C)CC)NC(=O)[C@H](NC(=O)[C@H](NC(=O)[C@H](CCCN)NC(=O)[C@H]2CCCN2C(=O)[C@H](NC(=O)[C@@H](NC(=O)CNC(=O)[C@H](NC(=O)CCCC(C)C)C(C)C)C(C)C)C(C)C)[C@@H](C)CC)[C@@H](C)OC(=O)[C@H](C(C)C)NC1=O [Compound 111, [Gly^12]-KF] ({Hexanoyl(5-Me)}-[dV]GV[dV][dP][Orn][d(aIle)][d(aThr)][d(aIle)][dV]F[Dhb]V; ester 8-C) sits?
Key: criterion not met

Exercise: Strictly below 2000 nM: is that where CC50 of C/C=C1\NC(=O)[C@H](CCC2CCCCC2)NC(=O)[C@@H](C(C)C)NC(=O)[C@@H]([C@@H](C)CC)NC(=O)[C@H](NC(=O)[C@H](NC(=O)[C@H](CCCN)NC(=O)[C@H]2CCCN2C(=O)[C@H](NC(=O)[C@@H](NC(=O)[C@@H](NC(=O)[C@H](NC(=O)CCCC(C)C)C(C)C)[C@@H](C)O)C(C)C)C(C)C)[C@@H](C)CC)[C@@H](C)OC(=O)[C@H](C(C)C)NC1=O [Compound 63] ({Hexanoyl(5-Me)}-[dV]TV[dV][dP][Orn][d(aIle)][d(aThr)][d(aIle)][dV][hCha][Dhb]V; ester 8-C) sits?
Key: criterion not met
